- Tested on: α-synuclein aggregate in dopamine neurospheroid prepared from human iPS cells with a mutation in GBA1 gene
- METHOD NOTES: Test 11: reducing the accumulation of α-synuclein aggregate with dopamine neurospheroid
- Assay type: cell-based
- APPLIED CONDITIONS: 100 nM, DMSO = 100%, compound added day 40, measured day 44, GBA1 mutant
Below, each of the compounds is paired with its reported Amount of aggregate (%) 100 nM value.
Numeric only. Scale: %

The examples below pair each entry with its known result.
1. CN1CC(C)(C(=O)N2CCC(c3cncc(C(F)(F)F)c3)CC2)C1; 20
2. CC1(C(=O)N2CCC(c3cncc(C(F)(F)F)c3)CC2)COC1; 21
3. CN1CC(C)(C(=O)N2CCC(c3cccnc3C(F)(F)F)CC2)C1; 18

Look up and state reported Amount of aggregate (%) 100 nM for CC1(C(=O)N2CCC(c3ccc(C(F)(F)F)nc3)CC2)COC1 23

###

- System: α-synuclein aggregate in neurospheroid prepared from human iPS cells with a mutation in PLA2G6 gene
- METHOD NOTES: Test 2: suppressing the accumulation of α-synuclein aggregate with neurospheroid
- Format: cell-based
- APPLIED CONDITIONS: 120 h, 1000 nM, DMSO = 100%, compound added day 4, measured day 9 after induction of differentiation, read-out: Amount of aggregate (%) 1000 nM
- Protocol: Test 2: Evaluation of Suppressing the Accumulation of α-Synuclein Aggregate with Neurospheroid Prepared from Human iPS Cells with a Mutation in PLA2G6 Gene (1) Induction of Differentiation from Human iPS Cell to Neural Cell […] Assuming that the amount of the aggregate in the neurospheroid added with a DMSO solution is 100%, the amount of the aggregate in the neurospheroid added with each test compound was evaluated.
Label scheme for activity at 1 µM: lower than 80% is NO, 80% and above is YES.

1) CCC1(C(=O)N2CC[C@@H](c3ccc(C(F)(F)F)nc3)C[C@@H]2C)COC1; NO
2) O=C([C@@H]1CCCO1)N1CCC(c2ccc(C(F)(F)F)nc2)CC1; NO
3) CC1(C(=O)N2CCC(c3cccnc3C(F)(F)F)CC2)CN(CC(F)(F)F)C1; NO
4) CC1(C)COCCN1C(=O)N1CCC(c2ccc(C(F)(F)F)nc2)CC1; NO
5) CC1(C(=O)N2CCC(c3cnc(C(F)(F)F)cn3)CC2)COC1; YES
6) CC1(C(=O)N2CCC(c3cnc(C(F)(F)F)c(F)c3)CC2)COC1; NO
7) CC1(C(=O)N2CCC(c3ccnc(C(F)(F)F)c3)CC2)COC1; YES
8) CCC1(C(=O)N2CCC(c3ccc(C(F)(F)F)cn3)CC2)COC1; NO
9) O=C(N1CCCOCC1)N1CCC(c2ccc(C(F)(F)F)nc2)CC1; YES
10) O=C([C@H]1CCOC1)N1CCC(c2ccc(C(F)(F)F)nc2)CC1; NO

Say whether Cc1cc(C(F)(F)F)ncc1C1CCN(C(=O)C2(C)COC2)CC1 shows activity at 1 µM of 80% or more. NO

Threshold query (activity at 1 µM >= 80%) on CCC1(C(=O)N2CCC(c3cnccc3C(F)(F)F)CC2)COC1 NO

Is reported activity at 1 µM greater than or equal to 80% here: O=C(C1COC1)N1CCC(c2ccc(C(F)(F)F)nc2)CC1 YES

Dear colleague, could you confirm whether CC1(C(=O)N2CCC(c3ccnc(C(F)(F)F)n3)CC2)COC1 has activity at 1 µM at or above 80%? YES

Threshold query (activity at 1 µM >= 80%) on CC1(C(=O)N2CCC(c3ccc(C(F)(F)F)cn3)CC2)COC1 NO

Hello, I need to know if CCN1CC(C)(C(=O)N2CCC(c3ccc(C(F)(F)F)nc3)CC2)C1 has measured activity at 1 µM not below 80%. Thanks! YES

In plain terms: is recorded activity at 1 µM at least 80% for CC1(C(=O)N2CCC(c3cnccc3C(F)(F)F)CC2)CNC1 ? NO

Confirm if activity at 1 µM reported for the molecule CC1(C(=O)N2CCC(c3ccc(C(F)(F)F)cn3)CC2)CNC1 is 80% or above. YES

###

- Tested on: α-synuclein aggregate in neurospheroid prepared from human iPS cells with a mutation in PLA2G6 gene
- METHOD NOTES: Test 2: suppressing the accumulation of α-synuclein aggregate with neurospheroid
- Assay type: cell-based
- APPLIED CONDITIONS: 120 h, 1000 nM, DMSO = 100%, compound added day 4, measured day 9 after induction of differentiation, read-out: Amount of aggregate (%) 1000 nM
- Description: Test 2: Evaluation of Suppressing the Accumulation of α-Synuclein Aggregate with Neurospheroid Prepared from Human iPS Cells with a Mutation in PLA2G6 Gene (1) Induction of Differentiation from Human iPS Cell to Neural Cell […] Assuming that the amount of the aggregate in the neurospheroid added with a DMSO solution is 100%, the amount of the aggregate in the neurospheroid added with each test compound was evaluated.
Please note: met applies when activity at 1 µM is 30% or greater, and not met applies otherwise.

1. CC1(C(=O)N2CCC(c3cccnc3C(F)(F)F)CC2)COC1; not met
2. O=C(C1CCOCC1)N1CCC(c2ccc(C(F)(F)F)nc2)CC1; met
3. CCC1(C(=O)N2CCC(c3ccc(C(F)(F)F)nc3)C2)COC1 (stereo not shown); met

Decide: is the reported value of activity at 1 µM for CC(C)c1ccc(C2CCN(C(=O)C3(C)COC3)CC2)cn1 equal to or greater than 30%? met

Decide: activity at 1 µM of CC1(C(=O)N2CCC(c3ccncc3C(F)(F)F)CC2)COC1 >= 30%? met

Assess whether reported activity at 1 µM for CCC1(C(=O)N2CCC(c3ccc(C(F)(F)F)nc3)CC2)COC1 sits at 30% or higher. met

Threshold query (activity at 1 µM >= 30%) on CCC1(C(=O)N2CCC(c3cncc(C(F)(F)F)c3)CC2)COC1 met

Can CC1(C(=O)N2CCC(c3cccnc3C(F)(F)F)CC2)CNC1 be said to have activity at 1 µM at or above 30%? met

Answer whether activity at 1 µM of O=C([C@H]1CCCO1)N1CCC(c2ccc(C(F)(F)F)nc2)CC1 is greater than or equal to 30%. not met

Is it the case that CCC1(C(=O)N2CCC(c3cccnc3C(F)(F)F)CC2)COC1 has activity at 1 µM reaching or exceeding 30%? met

Decide: is the reported value of activity at 1 µM for CC1(C)CN(C(=O)N2CCC(c3ccc(C(F)(F)F)nc3)CC2)CCO1 equal to or greater than 30%? met

Confirm if activity at 1 µM reported for the compound CN1CCC(C(=O)N2CCC(c3ccc(C(F)(F)F)nc3)CC2)CC1 is 30% or above. not met

Determine whether this compound has activity at 1 µM no lower than 30%: CC1(C(=O)N2CCC(c3ccc(C(F)(F)F)nc3)CC2)CNC1 not met

Could you verify whether the entry CC1(C(=O)N2CCCC(c3ccc(C(F)(F)F)nc3)C2)CNC1 (stereo not shown) shows activity at 1 µM of no less than 30%? not met

Is activity at 1 µM at least 30%? Consider CN1CC(C)(C(=O)N2CCC(c3cccnc3C(F)(F)F)CC2)C1 not met

###

- Test system: α-synuclein aggregate in neurospheroid prepared from human iPS cells with a mutation in PLA2G6 gene
- METHOD NOTES: Test 2: suppressing the accumulation of α-synuclein aggregate with neurospheroid
- Assay type: cell-based
- APPLIED CONDITIONS: 120 h, 1000 nM, DMSO = 100%, compound added day 4, measured day 9 after induction of differentiation, read-out: Amount of aggregate (%) 1000 nM
READOUT KIND: activity at 1 µM (%)
# unit: % | format: bare number

Provide activity at 1 µM value for the following compound: CC1(C(=O)N2CCC(c3cnccc3C(F)(F)F)CC2)COC1 [Example 3] 10

Tell me activity at 1 µM reported for CC1(C(=O)N2CCC(c3ccc(C(F)(F)F)nc3)CC2)COC1 [Example 1] 16

Entry CCC1(C(=O)N2CCCC(c3ccc(C(F)(F)F)nc3)C2)COC1 (stereo not drawn) [Example 12] needs its activity at 1 µM filled in; supply it. 12

Hello, please tell me recorded activity at 1 µM for this one: CC1(C(=O)N2CCC(F)(c3ccc(C(F)(F)F)nc3)CC2)COC1 [Example 21] 77

For the compound O=C(C1CCNCC1)N1CCC(c2ccc(C(F)(F)F)nc2)CC1 [Example 40] , report activity at 1 µM. 8

Fill in activity at 1 µM for record CC1(C(=O)N2CCCC(c3ccc(C(F)(F)F)nc3)C2)COC1 (stereo not drawn) [Example 11] 97

###

Catalogue of Amount of aggregate (%) 1000 nM values
- Test system: α-synuclein aggregate in dopamine neurospheroid prepared from human iPS cells with a mutation in GBA1 gene
- METHOD NOTES: Test 11: reducing the accumulation of α-synuclein aggregate with dopamine neurospheroid
- Format: cell-based
- APPLIED CONDITIONS: 1000 nM, DMSO = 100%, compound added day 40, measured day 44, GBA1 mutant
Record the result as number plus unit.

1. CN1CC(C)(C(=O)N2CCC(c3cccnc3C(F)(F)F)CC2)C1; 8%

Complete the entry with Amount of aggregate (%) 1000 nM for CN1CC(C)(C(=O)N2CCC(c3cncc(C(F)(F)F)c3)CC2)C1 24%

Return Amount of aggregate (%) 1000 nM for the following compound: CC1(C(=O)N2CCC(c3cncc(C(F)(F)F)c3)CC2)COC1 20%

Supply recorded Amount of aggregate (%) 1000 nM for CC1(C(=O)N2CCC(c3ccc(C(F)(F)F)nc3)CC2)COC1 here. 14%

Data provenance is patent US12398125B2.
